Biological target: DCN1 (DCUND1) protein PONY domain (Homo sapiens (Human), UniProt Q96GG9)
Sequence (Q96GG9 60-248): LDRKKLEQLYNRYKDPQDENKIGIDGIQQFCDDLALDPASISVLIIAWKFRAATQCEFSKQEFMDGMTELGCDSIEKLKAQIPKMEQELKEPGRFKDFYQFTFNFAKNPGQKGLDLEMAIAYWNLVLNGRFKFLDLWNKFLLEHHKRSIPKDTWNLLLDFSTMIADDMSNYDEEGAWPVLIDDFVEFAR
Assay: TR-FRET assay, DCN1 binding with FAM-labeled probe
Details: TR FRET IC50 1 hr (nM), 1 hr after treatment with compound
Entries annotated with measured IC50

compound	IC50
CCN1C(=O)[C@@H](NC(=O)C2CCN(C)CC2)[C@@H](C2CC2)c2c(C(=O)N3[C@H](C#N)C[C@H]4C[C@H]43)nn(C3CCOCC3)c21	1000 to 3000 nM
CCN1C(=O)[C@H](NC(=O)c2cccc(C(F)(F)F)c2)[C@H](C)c2c(C(=O)N3[C@H](C#N)C[C@H]4C[C@H]43)nn(C3CCOCC3)c21	1000 to 3000 nM
CCN1C(=O)[C@@H](NC(=O)c2cccc(C(F)(F)F)c2)[C@@H](c2ccc(F)cc2)c2c(/C=C3\CCC(=O)N3)nn(-c3ccccc3)c21 (racemic)	1000 to 3000 nM
C=C(COC)C(=O)NCc1nn(-c2ccccc2)c2c1[C@H](c1ccc(F)cc1)[C@H](NC(=O)c1cccc(C(F)(F)F)c1)C(=O)N2CC	200 to 1000 nM
CCN1C(=O)[C@@H](NC(=O)[C@H]2C[C@@H]3CCCC[C@@H]3N2)[C@@H](C2CC2)c2c(C(=O)N3[C@H](C#N)C[C@H]4C[C@H]43)nn(C3CCOCC3)c21	1000 to 3000 nM

----------
Test system: Cullin-3 (CUL3) neddylation
Experiment: AlphaLISA assay for Cullin-3 (CUL3) neddylation in TF 1 cells
Assay type: cell-based
Details: Homo sapiens, TF-1, 3 h, 3 hours treatment
pIC50: −log10 of the molar value.
Entries annotated with measured pIC50

compound	pIC50
CCN1C(=O)[C@@H](NC(=O)c2cccc(C(F)(F)F)c2)[C@@H](c2ccc(F)cc2)c2c(C(=O)N3CC(F)(F)C[C@H]3C#N)nn(-c3ccccc3)c21 (racemic) [Compound I-251]	≥ 7.00
CCN1C(=O)[C@@H](NC(=O)c2cccc(C(F)(F)F)c2)[C@@H](c2ccccn2)c2c([C@@H](C)NC#N)nn(-c3ccccc3)c21 (mixture of isomers) [Compound I-680]	≥ 7.00
CCN1C(=O)[C@@H](NC(=O)c2cccc(C(F)(F)F)c2)[C@@H](c2ccc(F)cc2)c2c(C(=O)N3CC[C@H](OC)[C@H]3C#N)nn(C3CCOCC3)c21 [Compound I-359]	≥ 7.00

----------
Molecular target: DCN1 (DCUND1) protein PONY domain (Homo sapiens (Human), UniProt Q96GG9)
Assay: TR-FRET assay, DCN1 binding with FAM-labeled probe
Settings: TR FRET IC50 1 hr (nM), 1 hr after treatment with compound

molecule	IC50
CCN1C(=O)[C@H](NC(=O)c2cccc(C(F)(F)F)c2)[C@H](c2ccc(F)cc2)c2c(C(=O)N(CC#N)C3COC3)nn(-c3ccccc3)c21 (racemic)	1000 to 3000 nM
CCN1C(=O)[C@H](NC(=O)c2cccc(C(F)(F)F)c2)[C@@H](c2ccc(F)cc2)c2c(CN3C(=O)CC[C@H]3C#N)nn(-c3ccccc3)c21	1000 to 3000 nM
CCN1C(=O)[C@@H](NC(=O)c2cccc(C(F)(F)F)c2)[C@@H](c2ccccn2)c2c([C@@H](C)NC#N)nn(-c3ccccc3)c21 (mixture of isomers)	200 to 1000 nM
CCN1C(=O)[C@@H](NC(=O)c2cccc(C(F)(F)F)c2)[C@@H](c2ccc(F)cc2)c2c([C@@H](C)NC(N)=O)nn(-c3ccccc3)c21	1000 to 3000 nM
CCN1C(=O)[C@@H](NC(=O)c2cccc(C(F)(F)F)c2)[C@@H](C2CC2)c2c(C(=O)N(CC#N)CCCN(C)C)nn(C3CCOCC3)c21	200 to 1000 nM
C=C(CN(C)C1COC1)C(=O)NCc1nn(-c2ccccc2)c2c1[C@@H](c1ccc(F)cc1)[C@H](NC(=O)c1cccc(C(F)(F)F)c1)C(=O)N2CC (racemic)	200 to 1000 nM
CCN1C(=O)[C@@H](NC(=O)c2ccc3ocnc3c2)[C@@H](C2CC2)c2c(C(=O)N3[C@H](C#N)C[C@H]4C[C@H]43)nn(C3CCOCC3)c21	1000 to 3000 nM
CCN1C(=O)[C@@H](NC(=O)c2cccc(C(F)(F)F)c2)[C@@H](c2ccc(F)cc2)c2c(C(=O)N(C)C3(C#N)CCC3)nn(-c3ccccc3)c21 (racemic)	1000 to 3000 nM
C=C(CN1CCC(F)(F)C1)C(=O)NCc1nn(-c2ccccc2)c2c1[C@H](c1ccc(F)cc1)[C@H](NC(=O)c1cccc(C(F)(F)F)c1)C(=O)N2CC (racemic)	200 to 1000 nM
CCN1C(=O)[C@@H](NC(=O)CN2C(=O)CSc3ccccc32)[C@@H](C2CC2)c2c(C(=O)N3[C@H](C#N)C[C@H]4C[C@H]43)nn(C3CCOCC3)c21	1000 to 3000 nM
CCN1C(=O)[C@@H](NC(=O)c2cccc3[nH]cnc23)[C@@H](C2CC2)c2c(C(=O)N3[C@H](C#N)C[C@H]4C[C@H]43)nn(C3CCOCC3)c21	1000 to 3000 nM
CCN1C(=O)[C@@H](NC(=O)c2ccc(C3CCN(C)CC3)cc2)[C@@H](C2CC2)c2c(C(=O)N3[C@H](C#N)C[C@H]4C[C@H]43)nn(C3CCOCC3)c21	1000 to 3000 nM
CCN1C(=O)[C@@H](NC(=O)c2cccc(C(F)(F)F)c2)[C@@H](c2ccc(F)cc2)c2c(C(=O)N(C)[C@@H](C)C#N)nn(-c3ccccc3)c21 (single isomer, unassigned)	≤ 200 nM
CCN1C(=O)[C@@H](NC(=O)c2cccc(C(F)(F)F)c2)[C@@H](c2ccc(F)cc2)c2c(CC/C=C\C(=O)O)nn(-c3ccccc3)c21 (racemic)	200 to 1000 nM
CCN1C(=O)[C@@H](NC(=O)c2cccc(C(F)(F)F)c2)[C@@H](c2ccc(F)nc2)c2c(C(=O)N3CCC[C@H]3C#N)nn(C3CC3)c21 (mixture of isomers)	1000 to 3000 nM
CCN1C(=O)[C@@H](NC(=O)c2cccc(C(F)(F)F)c2)[C@@H](c2ccc(F)cc2)c2c(CNC(=O)[C@@H](C)C#N)nn(-c3ccccc3)c21 (relative stereo)	200 to 1000 nM
CCN1C(=O)[C@@H](NC(=O)C2CCC(F)(F)CC2)[C@@H](C2CC2)c2c(C(=O)N3[C@H](C#N)C[C@H]4C[C@H]43)nn(C3CCOCC3)c21	1000 to 3000 nM
CCN1C(=O)[C@H](NC(=O)c2cccc(C(F)(F)F)c2)[C@H](c2ccc(F)cc2)c2c(C(=O)N3CC[C@H]3C#N)nn(-c3ccccc3)c21	1000 to 3000 nM
C=C(C)C(=O)N[C@@H](C)c1nn(-c2ccccc2)c2c1[C@H](c1ccc(F)cc1)[C@H](NC(=O)c1cccc(C(F)(F)F)c1)C(=O)N2CC (mixture of isomers)	200 to 1000 nM
C=C(C(=O)O)c1nn(-c2ccccc2)c2c1[C@H](c1ccc(F)cc1)[C@H](NC(=O)c1cccc(C(F)(F)F)c1)C(=O)N2CC (racemic) [Compound I-53]	1000 to 3000 nM

Sourced from patent US20250163057A1
